- Test system: pepper phytophthora blight (Phytopthora capsici)
- ASSAY_NOTES: Suppression of pepper phytophthora blight on leaves
- Type: in vivo
- COND: pepper leaves, 1.0 ppm
Peptide text beside a SMILES is read from it. * marks the point of attachment. Boc = CC(C)(C)OC(=O)*; OBn = c1ccc(CO*)cc1
MEASUREMENT_TYPE: Lesion outbreak rate (area %)

[
  {
    "COMPOUND": "COC(=O)[C@H](Cc1ccccc1)NC(=O)[C@H](CC(=O)O)NC(C)=O [Compound 102] (Ac-Asp-Phe-OMe)",
    "TESTED_TARGET": "pepper phytophthora blight (Phytopthora capsici)",
    "NUMERIC_READOUT": 15
  },
  {
    "COMPOUND": "COC(=O)[C@H](Cc1ccccc1)NC(=O)[C@@H](N)CC(=O)OCc1ccccc1 [Compound 95] (H-Asp(OBn)-Phe-OMe)",
    "TESTED_TARGET": "pepper phytophthora blight (Phytopthora capsici)",
    "NUMERIC_READOUT": 3.8
  },
  {
    "COMPOUND": "CCC(C)C(N)C(=O)NC(C)C(=O)OC (stereo not shown)",
    "TESTED_TARGET": "pepper phytophthora blight (Phytopthora capsici)",
    "NUMERIC_READOUT": 9.4
  },
  {
    "COMPOUND": "CCOC(=O)[C@H](C)NC(=O)CNC(=O)OC(C)(C)C [Compound 82] (Boc-Gly-Ala-OEt)",
    "TESTED_TARGET": "pepper phytophthora blight (Phytopthora capsici)",
    "NUMERIC_READOUT": 60
  }
]
